For each of the molecules below, state its viability, T/C.
- Test system: HUVEC/MSC spheroids viability
- Assay overview: Human HUVEC/MSC cell line growth inhibition [KRAS2];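 note: percent of DMSO vehicle control luminescence so 100% = untreated viability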
- Protocol conditions: second compound 0.316 µM; first compound 0.316 µM; hits give low values
API: value field is a number in %; no unit string.

The reported value for COc1cc(Nc2ncc3c(n2)-c2ccc(Cl)cc2C(c2c(F)cccc2OC)=NC3)ccc1C(=O)O + CNCc1ccccc1-c1csc(C(C)Nc2nc(C)nc3cc(OC)c(OC)cc23)c1 in terms of viability, T/C is 79.5

viability, T/C for CCNC(=O)CC1N=C(c2ccc(Cl)cc2)c2cc(OC)ccc2-n2c(C)nnc21 (stereo not given) + C=CC(=O)N1CCN(c2nc(=O)n(-c3c(C)ccnc3C(C)C)c3nc(-c4c(O)cccc4F)c(F)cc23)C(C)C1 is 116

According to the records, this molecule Cn1nccc1Nc1nccc(-c2cc3c(s2)C(C)(C)N(CCN2CCOCC2)C3=O)n1 + C=CC(=O)N1CCN(c2nc(=O)n(-c3c(C)ccnc3C(C)C)c3nc(-c4c(O)cccc4F)c(F)cc23)C(C)C1 displays viability, T/C of 98.6

The molecule identified as CC1OCC2(CCN(c3cnc(Sc4ccnc(N)c4Cl)c(N)n3)CC2)C1N (stereo not given) + C=CC(=O)N1CCN(c2nc(=O)n(-c3c(C)ccnc3C(C)C)c3nc(-c4c(O)cccc4F)c(F)cc23)C(C)C1 registered its viability, T/C at 92.1

Memo: O=C(c1cc(Cc2n[nH]c(=O)c3ccccc23)ccc1F)N1CCN(C(=O)C2CC2)CC1 + COc1cc2nc(C)nc(NC(C)c3cc(N)cc(C(F)(F)F)c3)c2cc1OC1CCOC1 , reported viability, T/C: 101

---

- System: HUVEC/MSC spheroids viability
- Assay overview: Human HUVEC/MSC cell line growth inhibition [KRAS2];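 note: percent of DMSO vehicle control luminescence so 100% = untreated viability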
- Protocol conditions: second compound 3 µM; first compound 0.1 µM; hits give low values
Measurement type: viability, T/C (%)
Return type: number; implicit unit %.

For reference, reported viability, T/C for COC(=O)c1ccc2c(C(=Nc3ccc(N(C)C(=O)CN4CCN(C)CC4)cc3)c3ccccc3)c(O)[nH]c2c1 + C=CC(=O)N1CCN(c2nc(OCC3CCCN3C)nc3c2CCN(c2cccc4cccc(C)c24)C3)CC1CC#N stands at 96.5

Sure, the documented viability, T/C for CC(C)n1nc(-c2ccc3oc(N)nc3c2)c2c(N)ncnc21 + C=CC(=O)N1CCN(c2nc(OCC3CCCN3C)nc3c2CCN(c2cccc4cccc(C)c24)C3)CC1CC#N is 40.7

Lab note: measured viability, T/C of O=C(c1cc(Cc2n[nH]c(=O)c3ccccc23)ccc1F)N1CCN(C(=O)C2CC2)CC1 + C=CC(=O)N1CCN(c2nc(OCC3CCCN3C)nc3c2CCN(c2cccc4cccc(C)c24)C3)CC1CC#N was 79.5

The compound CC1(C)CCC(CN2CCN(c3ccc(C(=O)NS(=O)(=O)c4ccc(NCC5CCOCC5)c([N+](=O)[O-])c4)c(Oc4cnc5[nH]ccc5c4)c3)CC2)=C(c2ccc(Cl)cc2)C1 + C=CC(=O)N1CCN(c2nc(OCC3CCCN3C)nc3c2CCN(c2cccc4cccc(C)c24)C3)CC1CC#N showed viability, T/C equal to 86.1

Lab note: measured viability, T/C of CC1OCC2(CCN(c3cnc(Sc4ccnc(N)c4Cl)c(N)n3)CC2)C1N (stereo not given) + C=CC(=O)N1CCN(c2nc(OCC3CCCN3C)nc3c2CCN(c2cccc4cccc(C)c24)C3)CC1CC#N was 67.6

Looking up CCNC(=O)CC1N=C(c2ccc(Cl)cc2)c2cc(OC)ccc2-n2c(C)nnc21 (stereo not given) + C=CC(=O)N1CCN(c2nc(OCC3CCCN3C)nc3c2CCN(c2cccc4cccc(C)c24)C3)CC1CC#N , I found its viability, T/C recorded as 89.9

Sample CCN1CCN(Cc2ccc(Nc3ncc(F)c(-c4cc(F)c5nc(C)n(C(C)C)c5c4)n3)nc2)CC1 + C=CC(=O)N1CCN(c2nc(OCC3CCCN3C)nc3c2CCN(c2cccc4cccc(C)c24)C3)CC1CC#N ; viability, T/C observed: 109

Notebook: Cn1nccc1Nc1nccc(-c2cc3c(s2)C(C)(C)N(CCN2CCOCC2)C3=O)n1 + C=CC(=O)N1CCN(c2nc(OCC3CCCN3C)nc3c2CCN(c2cccc4cccc(C)c24)C3)CC1CC#N , viability, T/C read as 107

Lab note: measured viability, T/C of Cn1ncnc1[C@H]1c2n[nH]c(=O)c3cc(F)cc(c23)N[C@@H]1c1ccc(F)cc1 + C=CC(=O)N1CCN(c2nc(OCC3CCCN3C)nc3c2CCN(c2cccc4cccc(C)c24)C3)CC1CC#N was 83.9

Recorded result, COc1cc2nccc(Oc3ccc(NC(=O)C4(C(=O)Nc5ccc(F)cc5)CC4)cc3)c2cc1OC + C=CC(=O)N1CCN(c2nc(OCC3CCCN3C)nc3c2CCN(c2cccc4cccc(C)c24)C3)CC1CC#N , viability, T/C: 80.4
